target_entity: PD1 (Homo sapiens), Q15116
Sequence (Q15116 25-170): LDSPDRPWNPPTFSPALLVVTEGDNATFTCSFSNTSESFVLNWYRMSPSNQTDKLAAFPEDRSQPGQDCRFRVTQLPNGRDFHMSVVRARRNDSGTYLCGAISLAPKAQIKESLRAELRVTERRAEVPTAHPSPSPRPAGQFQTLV
experimental_protocol: competitive binding kinetics
recorded_conditions: modification not given
pKi: −log10 of the molar value.
property_label: pKi

INSERT INTO results (binder, data_value) VALUES
  ('RWVARRDYRFDMGFDYWVWE [hairpin 1e]', 7.39);
